biological target: T1, human CD3 on human T cells (Jurkat) (human, UniProt P07766 23-207; P04234 22-171; P09693 23-182); test: flow cytometry titration on Jurkat cells
T1 construct: whole, on cells; also called huCD3+; cell surface CD3 on human (Jurkat) T cells
T1 sequence (P07766 23-207, chain 1 of 3): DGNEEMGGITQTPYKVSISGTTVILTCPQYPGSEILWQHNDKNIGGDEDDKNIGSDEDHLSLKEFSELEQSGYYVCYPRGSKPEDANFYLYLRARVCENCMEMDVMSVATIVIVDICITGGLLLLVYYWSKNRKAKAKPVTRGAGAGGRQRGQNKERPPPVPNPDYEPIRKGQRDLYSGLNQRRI
T1 sequence (P04234 22-171, chain 2 of 3): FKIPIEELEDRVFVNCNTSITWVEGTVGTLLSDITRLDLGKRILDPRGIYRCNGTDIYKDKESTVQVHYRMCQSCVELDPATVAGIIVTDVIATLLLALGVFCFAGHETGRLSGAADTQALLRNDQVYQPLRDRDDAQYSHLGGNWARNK
T1 sequence (P09693 23-182, chain 3 of 3): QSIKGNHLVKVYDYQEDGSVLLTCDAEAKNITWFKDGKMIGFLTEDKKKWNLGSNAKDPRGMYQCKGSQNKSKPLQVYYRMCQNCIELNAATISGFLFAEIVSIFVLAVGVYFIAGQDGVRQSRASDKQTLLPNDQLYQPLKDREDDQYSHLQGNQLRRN
Catalogue of pIC50 readings, one per entry.
In plain terms, pIC50 is the concentration in mol/L turned into minus its base-10 logarithm.

Examples with their reported pIC50 follow.
INSERT INTO measurements (binder, measured_value) VALUES
  ('HuL10H2 (Fab, V domains shown, Humanized Fab expressed in Expi293F; also called VL10 + VH2 humanized Fab) VH: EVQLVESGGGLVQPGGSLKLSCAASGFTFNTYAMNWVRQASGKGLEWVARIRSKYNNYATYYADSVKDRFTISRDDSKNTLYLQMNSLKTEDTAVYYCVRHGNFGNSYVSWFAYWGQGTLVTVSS VL: QAVVTQEPSLTTSPGGTVTLTCRSSTGAVTTSNYANWVQQKPDHLFTGLIGGTNKRAPGVPARFSGSLIGDKAALTISGAQPEDEAEYYCALWYSNLWVFGGGTKLTVL', 6.86),
  ('huL5H2 (heavy chain SEQ ID NO: 41 and light chain SEQ ID NO: 39) (Fab, V domains shown, also called VL5 kappa + H2 Fab) VH: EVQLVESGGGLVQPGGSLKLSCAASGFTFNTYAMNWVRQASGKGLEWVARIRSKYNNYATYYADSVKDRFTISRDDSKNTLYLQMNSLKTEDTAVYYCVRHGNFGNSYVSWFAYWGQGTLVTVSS VL: QAVVTQEPSLTVSPGGTVTLTCRSSTGAVTTSNYANWVQQKPDHLFRGLIGGTNKRAPGTPARFSGSLLGDKAALTISGAQPEDEAEYYCALWYSNLWVFGGGTKLTVLK', 8.35);

// next item, pIC50 requested
Q: Look up pIC50: HuL8H2 (Fab, V domains shown, Humanized Fab expressed in Expi293F; also called VL8 + VH2 humanized Fab) VH: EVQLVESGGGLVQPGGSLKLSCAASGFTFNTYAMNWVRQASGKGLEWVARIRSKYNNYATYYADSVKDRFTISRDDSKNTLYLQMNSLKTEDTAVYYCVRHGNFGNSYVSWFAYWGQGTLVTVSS VL: QAVVTQEPSLTVSPGGTVTLTCGSSTGAVTTSNYANWVQQKPDHLFRGLIGGTNKRAPGTPARFSGSLLGGKAALTISGAQPEDEAEYYCALWYSNLWVFGGGTKLTVL
Ans: 7.11
